Every entry's value here was drawn from patent US9044463B2.

# maps each entry to its IC50
target: human FSH receptor (Homo sapiens); construct: cotransfected with a CRE-luciferase reporter; assay: Antagonistic activity at the human FSH receptor expressed in CHO cells (CRE-luciferase reporter); conditions: CHO cells stably transfected with human FSH receptor and CRE-luciferase; with 49 μM recFSH; 4 hours incubation; read-out: IC50 (inhibition of recFSH-induced luciferase stimulation)
Sequence (P23945 18-695): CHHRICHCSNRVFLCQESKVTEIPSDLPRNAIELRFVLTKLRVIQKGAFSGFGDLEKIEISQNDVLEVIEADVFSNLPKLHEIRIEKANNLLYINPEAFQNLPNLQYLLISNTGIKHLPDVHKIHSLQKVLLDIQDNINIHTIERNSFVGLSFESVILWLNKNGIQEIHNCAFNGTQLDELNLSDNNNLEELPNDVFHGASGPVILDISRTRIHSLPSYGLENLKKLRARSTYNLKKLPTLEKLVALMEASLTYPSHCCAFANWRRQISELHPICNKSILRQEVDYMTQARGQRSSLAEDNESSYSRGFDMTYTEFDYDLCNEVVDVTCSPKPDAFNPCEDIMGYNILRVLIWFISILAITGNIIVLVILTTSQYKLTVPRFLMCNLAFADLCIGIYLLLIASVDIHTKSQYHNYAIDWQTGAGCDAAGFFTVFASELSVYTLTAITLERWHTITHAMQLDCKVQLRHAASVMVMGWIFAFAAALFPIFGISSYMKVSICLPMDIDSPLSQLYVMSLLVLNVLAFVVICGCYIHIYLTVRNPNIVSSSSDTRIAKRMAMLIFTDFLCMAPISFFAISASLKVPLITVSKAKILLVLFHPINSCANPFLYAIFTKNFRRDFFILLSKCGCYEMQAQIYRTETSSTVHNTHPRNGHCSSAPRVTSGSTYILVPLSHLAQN

The value of IC50 measured for the compound COc1cc2c(cc1-c1ccncc1)COc1cc(-c3ccccc3F)c(C(=O)N[C@@H](CO)Cc3c[nH]c4ccccc34)cc1-2 [Example 52] turned out to be < 100 nM

---

# maps each entry to its IC50
biological target: human FSH receptor (Homo sapiens); construct: cotransfected with a CRE-luciferase reporter; assay: Antagonistic activity at the human FSH receptor expressed in CHO cells (CRE-luciferase reporter); settings: CHO cells stably transfected with human FSH receptor and CRE-luciferase; with 49 μM recFSH; 4 hours incubation; read-out: IC50 (inhibition of recFSH-induced luciferase stimulation)

Known IC50 results, listed for orientation:
{"columns": ["Molecule", "Reported result"],
 "data": [
  ["CC(C)Oc1cc2c(cc1C(=O)N[C@@H](CO)Cc1c[nH]c3ccccc13)-c1cc3c(cc1CO2)OCO3", "100 to 1000 nM"],
  ["COc1cc2c(cc1OC(C)C)COc1cc(-c3ccccc3F)c(C(=O)N[C@@H](CO)Cc3c[nH]c4ccccc34)cc1-2", "< 100 nM"],
  ["Cc1ccsc1-c1cc2c(cc1C(=O)N[C@@H](CO)Cc1c[nH]c3ccccc13)-c1cc3c(cc1CO2)OCO3", "< 100 nM"]
]}

The value of IC50 measured for the molecule COCCOc1cc2c(cc1C(=O)N[C@@H](CO)Cc1c[nH]c3ccccc13)-c1cc(OC)c(OC)cc1CC2 turned out to be 100 to 1000 nM

The value of IC50 measured for the molecule CN(C)C(=O)c1ccc2c(c1)COc1cc(-c3ccccc3F)c(C(=O)N[C@@H](CO)Cc3c[nH]c4ccccc34)cc1-2 turned out to be < 100 nM

The value of IC50 measured for the molecule COc1cc2c(cc1-c1cnn(C)c1)COc1cc(-c3ccccc3F)c(C(=O)N[C@@H](CO)Cc3c[nH]c4ccccc34)cc1-2 turned out to be < 100 nM

The value of IC50 measured for the molecule COc1cc2c(cc1OC)-c1cc(C(=O)N[C@@H](CO)Cc3c[nH]c4ccccc34)c(-c3ccc(N)cc3F)cc1CC2 turned out to be < 100 nM

The value of IC50 measured for the molecule COc1cc2c(cc1OC)-c1cc(C(=O)N[C@@H](CO)Cc3c[nH]c4ccccc34)c(-c3c(C)n[nH]c3C)cc1OC2 turned out to be < 100 nM

The value of IC50 measured for the molecule COc1cc2c(cc1OC)-c1cc(C(=O)N[C@@H](CO)Cc3c[nH]c4ccccc34)c(OC(C)C)cc1OC2 turned out to be < 100 nM

The value of IC50 measured for the molecule O=C(N[C@@H](CO)Cc1c[nH]c2ccccc12)c1cc2c(cc1-c1ccccc1F)OCc1cc(C(=O)N3CCOCC3)ccc1-2 turned out to be < 100 nM

The value of IC50 measured for the molecule COc1cc2c(cc1OC)-c1cc(C(=O)N[C@@H](CO)Cc3c[nH]c4ccccc34)c(OC(C)C#N)cc1CC2 (some centres unmarked) turned out to be 100 to 1000 nM

The value of IC50 measured for the molecule COc1cc2c(c(OC)c1OC)CCc1cc(-c3cccs3)c(C(=O)N[C@@H](CO)Cc3c[nH]c4ccccc34)cc1-2 turned out to be < 100 nM

The value of IC50 measured for the molecule COc1cc2c(cc1OCCN(C)C)COc1cc(-c3ccccc3F)c(C(=O)N[C@@H](CO)Cc3c[nH]c4ccccc34)cc1-2 turned out to be < 100 nM

The value of IC50 measured for the molecule COc1cc2c(cc1OC)-c1cc(C(=O)N[C@@H](CO)Cc3c[nH]c4ccccc34)c(-c3ccccc3)cc1OC2 turned out to be < 100 nM
